- Measured target: Histamine H1 receptor (Homo sapiens, UniProt P35367)
- Sequence (P35367 whole entry): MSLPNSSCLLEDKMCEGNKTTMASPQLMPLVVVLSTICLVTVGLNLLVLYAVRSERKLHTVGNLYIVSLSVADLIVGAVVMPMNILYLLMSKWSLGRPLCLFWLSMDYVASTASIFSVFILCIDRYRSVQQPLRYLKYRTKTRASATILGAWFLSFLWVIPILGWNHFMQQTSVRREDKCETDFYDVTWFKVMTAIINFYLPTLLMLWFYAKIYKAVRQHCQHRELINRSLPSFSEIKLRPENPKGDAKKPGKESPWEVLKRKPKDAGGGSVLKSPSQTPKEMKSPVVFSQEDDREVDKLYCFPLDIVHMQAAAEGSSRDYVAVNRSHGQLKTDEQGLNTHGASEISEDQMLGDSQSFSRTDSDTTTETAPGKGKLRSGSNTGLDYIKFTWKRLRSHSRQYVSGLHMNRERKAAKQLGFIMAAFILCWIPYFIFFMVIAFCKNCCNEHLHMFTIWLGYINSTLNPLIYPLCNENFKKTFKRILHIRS
- Experimental details: biochemical
- Type: cell-based, HEK-293T
Measured endpoint: Ki (nM)

| Sample smiles | Measured target | Measured endpoint | Value |
| --- | --- | --- | --- |
| Clc1ccc(Cc2ccccc2OC2CCNCC2)cc1 | Histamine H1 receptor (Homo sapiens, UniProt P35367) | Ki | 6.31 |

(A) c1ccc(Cc2ccccc2OCCN2CCCC2)cc1
(B) c1ccc(Cc2ccccc2OCCCN2CCC2)cc1
(C) CN1CCC(Oc2ccccc2Cc2ccc(Cl)cc2)CC1
Prompt line: Could you please sort these 3 entries by Ki from high to low? Arrange the labels as the request states and list them.
Response line: A, B, C
